Listing: Vd of selected molecules
- Assay name: Volume of distribution in Balb/c mouse at 5 mg/kg, iv
- Assay type: ADME, organism-based
- Parameters: dose 5 mg/kg, route intravenous
- Recorded conditions: in vivo

Inquiry: Report Vd for CC1(C)c2nc(-c3ccc(F)cc3)c(Nc3ccc(F)cc3)n2CCN1C(=O)CN [GANAPLACIDE] please.
Reply text: 10.2 L/kg

Inquiry: How about this molecule: Cc1ccc(Nc2c(-c3ccc(F)cc3)nc3n2CCN(C(=O)C(C)(C)N)C3(C)C)cc1
Reply text: 7.5 L/kg

Inquiry: How about this molecule: CC1(C)c2nc(-c3ccc(F)cc3)c(Nc3ccc(F)c(F)c3)n2CCN1C(=O)CN
Reply text: 7.5 L/kg

Inquiry: How about this molecule: CC1(C)NCCn2c1nc(-c1ccc(F)cc1)c2Nc1ccc(F)cc1
Reply text: 1.2 L/kg

* * *

- System: Mus musculus
- Assay name: AUC (0 to 24 hrs) in Balb/c mouse at 20 mg/kg, po
- Assay type: ADME, organism-based, Plasma
- Parameters: time < 24 hr, dose 20 mg/kg, route oral
- Recorded conditions: in vivo
Assay readout: log10 AUC (log10 of the value in µM·h)
Reminder: these figures are log10 of reported AUC, in µM·h before transformation.

Example cases with answers are listed next.
Inquiry: Report log10 AUC for CC1(C)c2nc(-c3ccc(F)cc3)c(Nc3ccc(F)cc3)n2CCN1C(=O)CN [GANAPLACIDE] please.
Reply text: 1.08

Inquiry: How about this compound: CC1(C)NCCn2c1nc(-c1ccc(F)cc1)c2Nc1ccc(F)cc1
Reply text: 1.29

Inquiry: How about this compound: NCC(=O)N1CCn2c(nc(-c3ccc(F)cc3)c2Nc2ccc(F)cc2)C1
Reply text: -0.02

Inquiry: How about this compound: CC(C)(N)C(=O)N1CCn2c(nc(-c3ccc(F)cc3)c2Nc2ccc(F)cc2)C1
Reply text: 1.25

Continuing:
Inquiry: Report log10 AUC for Cc1ccc(Nc2c(-c3ccc(F)cc3)nc3n2CCN(C(=O)C(C)(C)N)C3(C)C)cc1 please.
Reply text: 1.51

Inquiry: How about this compound: CC1(C)c2nc(-c3ccc(F)cc3)c(Nc3ccc(F)c(F)c3)n2CCN1C(=O)CN
Reply text: 1.32

* * *

- System: Plasmodium berghei
- Assay name: Antimalarial activity against Plasmodium berghei ANKA expressing GFP infected in NMRI mouse assessed as increase of mouse survival at 30 mg/kg, po administered 24 hrs post infection (reference value: 6 to 7 days)
- Type: functional
Threshold 9 days. Survival below it: condition met. Survival at it or above: condition not met.

// below: answered compounds
Inquiry: Could you please tell me whether Survival recorded for CC1(C)c2nc(-c3ccc(F)cc3)c(Nc3ccc(F)c(F)c3)n2CCN1C(=O)CN is less than 9 days?
Reply text: condition not met

Inquiry: How about this compound: CC1(C)c2nc(-c3ccc(F)cc3)c(Nc3ccc(F)cc3)n2CCN1C(=O)CN [GANAPLACIDE]
Reply text: condition not met

Inquiry: How about this compound: CC1(C)NCCn2c1nc(-c1ccc(F)cc1)c2Nc1ccc(F)cc1
Reply text: condition met

Inquiry: How about this compound: Cc1ccc(Nc2c(-c3ccc(F)cc3)nc3n2CCN(C(=O)C(C)(C)N)C3(C)C)cc1
Reply text: condition not met

Below: the item to evaluate.
Inquiry: Could you please tell me whether Survival recorded for C[C@H]1[C@H](OC(=O)CCC(=O)O)O[C@@H]2O[C@@]3(C)CC[C@H]4[C@H](C)CC[C@@H]1[C@@]24OO3 [ARTESUNATE] is less than 9 days?
Reply text: condition met

* * *

Listing: permeability of selected compounds
- Assay name: Permeability of the compound by PAMPA
- Format: ADME
# number only, unit % dropped from output

Example cases with answers are listed next.
Inquiry: Report permeability for Cc1ccc(Nc2c(-c3ccc(F)cc3)nc3n2CCN(C(=O)C(C)(C)N)C3(C)C)cc1 please.
Reply text: 99.5

Inquiry: How about this compound: CC1(C)NCCn2c1nc(-c1ccc(F)cc1)c2Nc1ccc(F)cc1
Reply text: 99.9

Inquiry: How about this compound: CC1(C)c2nc(-c3ccc(F)cc3)c(Nc3ccc(F)cc3)n2CCN1C(=O)CN [GANAPLACIDE]
Reply text: 51.8

Inquiry: How about this compound: Cc1ccc(Nc2c(-c3ccc(F)cc3)nc3n2CCNC3(C)C)cc1
Reply text: 99.9

Inquiry: How about this compound: Cc1ccc(Nc2c(-c3ccc(F)cc3)nc3n2CCNC3)cc1
Reply text: 99.5

Inquiry: How about this compound: CC(C)(N)C(=O)N1CCn2c(nc(-c3ccc(F)cc3)c2Nc2ccc(F)cc2)C1
Reply text: 81

Inquiry: How about this compound: NCC(=O)N1CCn2c(nc(-c3ccc(F)cc3)c2Nc2ccc(F)cc2)C1
Reply text: 52

Inquiry: How about this compound: CC1(C)c2nc(-c3ccc(F)cc3)c(Nc3ccc(F)c(F)c3)n2CCN1C(=O)CN
Reply text: 51.5

Inquiry: How about this compound: Cc1ccc(Nc2c(-c3ccc(F)cc3)nc3n2CC(=O)NC3)cc1
Reply text: 80.9

Continuing:
Inquiry: Report permeability for CC(C)(N)C(=O)N1CCn2c(nc(-c3ccc(F)cc3)c2Nc2ccc(F)cc2)C1(C)C please.
Reply text: 99.5

* * *

- Assay name: Tmax in Balb/c mouse at 20 mg/kg, po
- Format: ADME, organism-based
- Set-up: dose 20 mg/kg, route oral
- Recorded conditions: in vivo
Assay readout: Tmax (h)
# number only, unit h dropped from output

Inquiry: Report Tmax for CC1(C)c2nc(-c3ccc(F)cc3)c(Nc3ccc(F)cc3)n2CCN1C(=O)CN [GANAPLACIDE] please.
Reply text: 1

Inquiry: How about this compound: CC1(C)c2nc(-c3ccc(F)cc3)c(Nc3ccc(F)c(F)c3)n2CCN1C(=O)CN
Reply text: 3

Inquiry: How about this compound: Cc1ccc(Nc2c(-c3ccc(F)cc3)nc3n2CCN(C(=O)C(C)(C)N)C3(C)C)cc1
Reply text: 1

Continuing:
Inquiry: Report Tmax for CC1(C)NCCn2c1nc(-c1ccc(F)cc1)c2Nc1ccc(F)cc1 please.
Reply text: 1

* * *

- Assay name: Tmax in Wistar rat at 30 mg/kg, po
- Assay type: ADME, organism-based
- Design: dose 30 mg/kg, route oral
- Recorded conditions: in vivo
Assay readout: Tmax (h)
# number only, unit h dropped from output

Inquiry: Report Tmax for CC1(C)c2nc(-c3ccc(F)cc3)c(Nc3ccc(F)cc3)n2CCN1C(=O)CN [GANAPLACIDE] please.
Reply text: 4.3

* * *

Listing: hepatic extraction ratio of selected compounds
- Assay name: Metabolic stability in mouse liver microsomes assessed as hepatic extraction ratio by LC/MS/MS analysis in presence of CYP
- Format: ADME, Microsome

Example cases with answers are listed next.
Inquiry: Report hepatic extraction ratio for Cc1ccc(Nc2c(-c3ccc(F)cc3)nc3n2CC(=O)NC3(C)C)cc1 please.
Reply text: 0.72

Inquiry: How about this compound: CC1(C)NCCn2c1nc(-c1ccc(F)cc1)c2Nc1ccc(F)cc1
Reply text: 0.8

Inquiry: How about this compound: Cc1ccc(Nc2c(-c3ccc(F)cc3)nc3n2CC(=O)NC3)cc1
Reply text: 0.66

Inquiry: How about this compound: Cc1ccc(Nc2c(-c3ccc(F)cc3)nc3n2CCNC3(C)C)cc1
Reply text: 0.87

Inquiry: How about this compound: CC1(C)c2nc(-c3ccc(F)cc3)c(Nc3ccc(F)c(F)c3)n2CCN1C(=O)CN
Reply text: 0.46

Continuing:
Inquiry: Report hepatic extraction ratio for Cc1ccc(Nc2c(-c3ccc(F)cc3)nc3n2CCNC3)cc1 please.
Reply text: 0.87

* * *

- Assay name: Cytotoxicity against human Hep2 cells
- Assay type: cell-based
- Recorded conditions: HEp-2 cells
Assay readout: CC50

Inquiry: Report CC50 for CC1(C)c2nc(-c3ccc(F)cc3)c(Nc3ccc(F)cc3)n2CCN1C(=O)CN [GANAPLACIDE] please.
Reply text: > 12 µM

* * *

- Assay name: Cmax in Balb/c mouse at 20 mg/kg, po
- Assay type: ADME, organism-based
- Parameters: dose 20 mg/kg, route oral
- Recorded conditions: in vivo
Assay readout: Cmax (nM)
# number only, unit nM dropped from output

Example cases with answers are listed next.
Inquiry: Report Cmax for CC1(C)NCCn2c1nc(-c1ccc(F)cc1)c2Nc1ccc(F)cc1 please.
Reply text: 6400

Inquiry: How about this compound: CC1(C)c2nc(-c3ccc(F)cc3)c(Nc3ccc(F)c(F)c3)n2CCN1C(=O)CN
Reply text: 1720

Continuing:
Inquiry: Report Cmax for Cc1ccc(Nc2c(-c3ccc(F)cc3)nc3n2CCN(C(=O)C(C)(C)N)C3(C)C)cc1 please.
Reply text: 1640

Inquiry: How about this compound: CC1(C)c2nc(-c3ccc(F)cc3)c(Nc3ccc(F)cc3)n2CCN1C(=O)CN [GANAPLACIDE]
Reply text: 1540
